molecular target: Serine/threonine-protein kinase TAO3 (Homo sapiens, UniProt Q9H2K8); also: in the data inactive means no Kd found up to 30 µM
Sequence (Q9H2K8 whole entry): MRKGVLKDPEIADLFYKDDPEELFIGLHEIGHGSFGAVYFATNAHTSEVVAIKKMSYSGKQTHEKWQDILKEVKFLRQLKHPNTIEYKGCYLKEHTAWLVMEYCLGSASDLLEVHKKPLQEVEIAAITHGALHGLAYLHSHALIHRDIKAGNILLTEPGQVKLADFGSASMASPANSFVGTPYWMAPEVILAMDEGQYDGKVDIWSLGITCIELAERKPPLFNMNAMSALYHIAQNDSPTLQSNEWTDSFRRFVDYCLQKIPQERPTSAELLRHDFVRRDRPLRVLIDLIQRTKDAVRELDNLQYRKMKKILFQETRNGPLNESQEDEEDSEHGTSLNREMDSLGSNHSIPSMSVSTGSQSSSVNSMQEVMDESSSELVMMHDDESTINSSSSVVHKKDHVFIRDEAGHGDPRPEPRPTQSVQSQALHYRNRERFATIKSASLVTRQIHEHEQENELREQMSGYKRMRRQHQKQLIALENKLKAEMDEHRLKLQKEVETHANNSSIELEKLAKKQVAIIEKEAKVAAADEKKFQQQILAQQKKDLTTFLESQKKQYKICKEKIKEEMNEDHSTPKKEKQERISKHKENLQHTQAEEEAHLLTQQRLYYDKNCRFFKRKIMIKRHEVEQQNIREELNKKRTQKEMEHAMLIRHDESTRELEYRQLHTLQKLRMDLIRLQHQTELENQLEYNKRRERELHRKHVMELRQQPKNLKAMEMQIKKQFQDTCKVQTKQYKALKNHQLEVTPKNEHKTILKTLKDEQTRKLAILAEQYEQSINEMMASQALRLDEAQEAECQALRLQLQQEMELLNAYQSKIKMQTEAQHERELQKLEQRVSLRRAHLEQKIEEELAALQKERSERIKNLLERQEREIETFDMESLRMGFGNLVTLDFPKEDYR
Calls of active or inactive are those of the source.
Permitted responses: class 1 = active, class 0 = inactive

Take a look at these entries with their results.
Compound	Assigned Category
O=C1NC(=O)/C(=C/c2ccc3nccc(-c4ccncc4)c3c2)S1	class 0
CN1CCC(CNc2ccc3ncc(-c4cccc(OC(F)(F)F)c4)n3n2)CC1	class 0
Cn1cc(-c2ccc(F)c(C(F)(F)F)c2)nc1C1CCN(c2ncnc3[nH]ncc23)CC1	class 0
COc1cc2nccc(Oc3ccc(NC(=O)Nc4cc(C)on4)c(Cl)c3)c2cc1OC	class 0
CNC(=O)CN1CCC(Oc2cc3c(Nc4cccc(Cl)c4F)ncnc3cc2OC)CC1	class 0
CN1N=C(N)c2cn([C@@H]3O[C@H](COP(=O)(O)O)[C@@H](O)[C@H]3O)c3ncnc1c23 [TRICIRIBINE PHOSPHATE]	class 0
C=CC(=O)N1CCC(Oc2cc3c(Nc4ccc(Cl)c(Cl)c4F)ncnc3cc2OC)CC1	class 0
O=c1sn(-c2cccc3ccccc23)c(=O)n1Cc1ccccc1	class 0
Cc1cc([C@@H](C)Nc2ccccc2C(=O)O)c2nc(N3CCOCC3)cc(=O)n2c1	class 0
Cc1cc(-c2cc(O)ccc2Cl)cc2nnc(Nc3ccc(OCCN4CCCC4)cc3)nc12	class 0

Could you please tell me the result logged for `Cc1ccc(NC(=O)c2ccc(CN3CC[C@H](N(C)C)C3)c(C(F)(F)F)c2)cc1Nc1nccc(-c2cncnc2)n1` in this assay?
class 0

Assay result, entry `CCCS(=O)(=O)Nc1ccc(F)c(C(=O)c2c[nH]c3ncc(-c4ccc(Cl)cc4)cc23)c1F` — outcome?
class 0

State the result this test recorded for `CCc1cnn2c(NCc3ccc[n+]([O-])c3)cc(N3CCCC[C@H]3CCO)nc12` .
class 1

Short answer needed: outcome of this test for `Cn1ncc(Cl)c1-c1cc(C(=O)N[C@H](CN)Cc2cccc(F)c2)sc1Cl` ?
class 0

Tell me the recorded outcome of this test for `CC(C)Nc1cc(-c2c[nH]c(C(=O)N[C@H](CO)c3cccc(Cl)c3)c2)c(Cl)cn1` .
class 0

Which outcome was assigned to `O=C(Nc1cccc(Cl)c1)Nc1ncc(CCNc2ncnc3ccsc23)s1` in this test?
class 0

Which outcome was entered for the compound `COCCNCc1ccc(-c2cc3nccc(Oc4ccc(NC(=S)NC(=O)Cc5ccc(F)cc5)cc4F)c3s2)nc1` in this test?
class 0

Please indicate how the test categorized `Cc1ccc(S(=O)(=O)Nc2nc3ccccc3nc2Nc2ccc3nsnc3c2)cc1` .
class 0

Test call, this compound: Cc1cc2c(F)c(Oc3ncnn4cc(OC[C@@H](C)OC(=O)[C@H](C)N)c(C)c34)ccc2[nH]1 [BRIVANIB ALANINATE]
class 0

# outcome recorded in this test, key = `C[C@@H](Nc1cc(F)cc(F)c1)c1cc(C(=O)N(C)C)cc2c(=O)cc(N3CCOCC3)oc12`
class 0

Tell me the assay call for `O=C(c1ccc(F)c(F)c1Nc1ccc(I)cc1F)N1CC(O)([C@@H]2CCCCN2)C1` please.
class 0

Per the records of this test, what outcome belongs to `C[C@@H](c1ccc2nccn2c1)n1nnc2ncc(-c3cnn(C)c3)nc21` ?
class 0
